// provenance: patent US20050209278A1

Target: MMP-1 (Homo sapiens, UniProt P03956)
Construct: made in house; host or cells: MMP-1-transfected HT-1080 cells (spent media)
Sequence (P03956 100-469, species assumed): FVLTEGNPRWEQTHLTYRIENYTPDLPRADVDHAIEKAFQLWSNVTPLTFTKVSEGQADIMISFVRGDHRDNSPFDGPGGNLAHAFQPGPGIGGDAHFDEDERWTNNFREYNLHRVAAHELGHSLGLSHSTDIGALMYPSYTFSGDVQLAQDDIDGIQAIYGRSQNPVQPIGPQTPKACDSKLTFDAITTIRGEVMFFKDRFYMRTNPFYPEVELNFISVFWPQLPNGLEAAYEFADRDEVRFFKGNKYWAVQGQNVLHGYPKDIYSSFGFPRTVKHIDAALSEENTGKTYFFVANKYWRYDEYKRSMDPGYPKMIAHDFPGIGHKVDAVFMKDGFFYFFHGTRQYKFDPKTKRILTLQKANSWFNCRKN
Assay: MMP-1 inhibition (in vitro Ki)
Format: biochemical
Conditions: Table 9; read-out: MMP-1 Ki (IC-50)
quantity.measured: Ki (µM)

I: CN(Cc1ccco1)C(=O)CCCCC1CCN(S(=O)(=O)C2(C(=O)NO)CCOCC2)CC1 [Example A99]
II: CN(CC1CCCCC1)C(=O)CCCCC1CCN(S(=O)(=O)C2(C(=O)NO)CCOCC2)CC1 [Example A112]
Identify the entry with the smaller Ki: I or II . Returns: label corresponding to the selected item.
I
(I: 0.356 µM, II: 0.708 µM)

I: O=C(CO)N1CCC(C(=O)NO)(S(=O)(=O)N2CCC(c3ccc(CCC(F)(F)C(F)(F)F)cn3)CC2)CC1 [Example A118]
II: CC(C)(C(=O)NO)S(=O)(=O)N1CCC(c2ccc(CCC(F)(F)C(F)(F)F)cn2)CC1 [Example A122]
III: CCCC(F)(F)c1ccc(C2CCN(S(=O)(=O)C3(C(=O)NO)CCOCC3)CC2)nc1 [Example A156]
IV: O=C(CCCCC1CCN(S(=O)(=O)C2(C(=O)NO)CCOCC2)CC1)N1CCCC1 [Example A97]
Please produce an ascending ranking of these molecules based on Ki. Write the labels in rank order as requested.
IV, II, III, I
(IV: 0.496 µM, II: 3.1 µM, III: 4.55 µM, I: 6.6 µM)

I: O=C(NO)C1(S(=O)(=O)N2CCC(c3ccc(CCC4CC4)cn3)CC2)CCOCC1 [Example A123]
II: CC(=O)OCCCC#Cc1ccc(C2CCN(S(=O)(=O)C3(C(=O)NO)CCOCC3)CC2)nc1 [Example A135]
Pick one: I or II . Which has the bigger Ki number? Returns: label corresponding to the selected item.
I
(I: 5.16 µM, II: 2.62 µM)
